All figures here come from patent US12076307B2.

The next entries give measured IC50 for CYP2C19 (Homo sapiens).
Reported property: IC50 (µM)

[
  {
    "Molecule": "CCCCC/C=C\\C/C=C\\CCCCCCCC(=O)OC(COC(C)=O)COC(=O)CCCCCCCCCCCCCCC (centres unmarked) [EC-18, 1-palmitoyl-2-linoleoyl-3-acetylglycerol]",
    "Observed": 83.6
  },
  {
    "Molecule": "COc1ccc2[nH]c([S+]([O-])Cc3ncc(C)c(OC)c3C)nc2c1 (centres unmarked) [omeprazole, reference compound]",
    "Observed": 6
  }
]

* * *

Target of assay: OATP1B1 (Homo sapiens, UniProt Q9Y6L6)
Sequence (Q9Y6L6 1-691): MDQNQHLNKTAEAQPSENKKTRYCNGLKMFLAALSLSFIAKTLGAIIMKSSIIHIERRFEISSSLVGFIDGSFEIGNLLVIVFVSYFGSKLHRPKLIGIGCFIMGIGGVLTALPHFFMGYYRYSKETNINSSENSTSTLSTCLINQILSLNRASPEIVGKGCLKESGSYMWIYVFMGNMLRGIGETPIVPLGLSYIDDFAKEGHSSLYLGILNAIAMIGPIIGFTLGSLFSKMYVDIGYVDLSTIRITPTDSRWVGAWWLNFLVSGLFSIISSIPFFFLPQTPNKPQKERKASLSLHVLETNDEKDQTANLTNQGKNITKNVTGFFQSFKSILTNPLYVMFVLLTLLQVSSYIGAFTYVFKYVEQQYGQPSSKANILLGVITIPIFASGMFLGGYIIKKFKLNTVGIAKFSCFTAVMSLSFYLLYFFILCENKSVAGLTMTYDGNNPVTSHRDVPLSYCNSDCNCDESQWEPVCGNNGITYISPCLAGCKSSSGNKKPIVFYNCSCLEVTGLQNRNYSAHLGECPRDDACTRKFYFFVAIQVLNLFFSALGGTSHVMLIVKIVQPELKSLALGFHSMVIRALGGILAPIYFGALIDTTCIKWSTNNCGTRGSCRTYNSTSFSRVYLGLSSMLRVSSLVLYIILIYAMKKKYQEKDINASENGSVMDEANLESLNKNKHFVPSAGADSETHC

[
  {
    "Compound": "CCCCC/C=C\\C/C=C\\CCCCCCCC(=O)OC(COC(C)=O)COC(=O)CCCCCCCCCCCCCCC (stereo not shown)",
    "Target of assay": "OATP1B1 (Homo sapiens, UniProt Q9Y6L6)",
    "IC50": "> 32 µM"
  }
]

* * *

Assay name: Plasma and lymphatic concentrations of EC-18 in beagle dogs after single administration
Type: in vivo, dog
Test conditions: male, beagle, dog; 1000 mg/kg po; Lymph

[
  {
    "Compound": "CCCCC/C=C\\C/C=C\\CCCCCCCC(=O)OC(COC(C)=O)COC(=O)CCCCCCCCCCCCCCC (stereo not shown) [EC-18, 1-palmitoyl-2-linoleoyl-3-acetylglycerol]",
    "Cmax [ng/mL]": 35100
  }
]

* * *

Assay name: Plasma concentrations of EC-18 in non-irradiated and irradiated mice
Type: in vivo
Test conditions: male, Balb/c, mouse, po, 100 mg/kg, day 7, 100 mg/kg oral daily, Non-irradiated

[
  {
    "Compound": "CCCCC/C=C\\C/C=C\\CCCCCCCC(=O)OC(COC(C)=O)COC(=O)CCCCCCCCCCCCCCC (stereo not shown)",
    "AUC(0-t)": "25.3 ng·h/mL"
  }
]

* * *

Target of assay: OAT3 (Homo sapiens, UniProt Q8TCC7)
Sequence (Q8TCC7 1-542): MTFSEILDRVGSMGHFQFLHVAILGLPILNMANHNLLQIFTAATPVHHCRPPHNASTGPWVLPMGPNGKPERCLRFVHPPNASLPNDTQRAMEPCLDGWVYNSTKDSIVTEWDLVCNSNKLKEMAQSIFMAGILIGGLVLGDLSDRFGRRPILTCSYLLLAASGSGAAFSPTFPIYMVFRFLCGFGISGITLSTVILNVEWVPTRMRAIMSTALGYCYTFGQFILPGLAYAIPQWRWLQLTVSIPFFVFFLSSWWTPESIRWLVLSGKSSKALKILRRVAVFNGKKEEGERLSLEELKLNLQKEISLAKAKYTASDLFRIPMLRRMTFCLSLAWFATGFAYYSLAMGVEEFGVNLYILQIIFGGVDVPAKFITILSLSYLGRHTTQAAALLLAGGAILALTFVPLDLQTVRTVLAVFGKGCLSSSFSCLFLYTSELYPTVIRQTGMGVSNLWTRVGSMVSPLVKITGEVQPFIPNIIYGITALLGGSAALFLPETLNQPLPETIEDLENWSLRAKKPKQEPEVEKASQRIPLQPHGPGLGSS
pIC50: −log10 of the molar value.

[
  {
    "Molecule": "CCCCC/C=C\\C/C=C\\CCCCCCCC(=O)OC(COC(C)=O)COC(=O)CCCCCCCCCCCCCCC (stereo not shown)",
    "Target of assay": "OAT3 (Homo sapiens, UniProt Q8TCC7)",
    "pIC50": "< 4.49"
  }
]

* * *

Assay name: Plasma and lymphatic concentrations of EC-18 in beagle dogs after single administration
Format: in vivo, dog
Test conditions: male, beagle, dog; 100 mg/kg IV; Plasma
Reported property: AUC(0-t) (ng·h/mL)

[
  {
    "Compound": "CCCCC/C=C\\C/C=C\\CCCCCCCC(=O)OC(COC(C)=O)COC(=O)CCCCCCCCCCCCCCC (stereo not shown) [EC-18, 1-palmitoyl-2-linoleoyl-3-acetylglycerol]",
    "Observed": 7540
  }
]

* * *

Assay name: Plasma concentrations of EC-18 in non-irradiated and irradiated mice
Assay type: in vivo
Test conditions: male, Balb/c, mouse, po, 50 mg/kg, day 7, 50 mg/kg oral daily, Non-irradiated
Reported property: AUC(0-t) (µg·h/mL)

[
  {
    "Compound": "CCCCC/C=C\\C/C=C\\CCCCCCCC(=O)OC(COC(C)=O)COC(=O)CCCCCCCCCCCCCCC (stereo not shown)",
    "Observed": 0.0216
  }
]

* * *

Target of assay: OATP1B3 (Homo sapiens)
Construct: expressed in transfected cells; host or cells: HEK-293
Sequence (Q9NPD5 whole entry, species assumed): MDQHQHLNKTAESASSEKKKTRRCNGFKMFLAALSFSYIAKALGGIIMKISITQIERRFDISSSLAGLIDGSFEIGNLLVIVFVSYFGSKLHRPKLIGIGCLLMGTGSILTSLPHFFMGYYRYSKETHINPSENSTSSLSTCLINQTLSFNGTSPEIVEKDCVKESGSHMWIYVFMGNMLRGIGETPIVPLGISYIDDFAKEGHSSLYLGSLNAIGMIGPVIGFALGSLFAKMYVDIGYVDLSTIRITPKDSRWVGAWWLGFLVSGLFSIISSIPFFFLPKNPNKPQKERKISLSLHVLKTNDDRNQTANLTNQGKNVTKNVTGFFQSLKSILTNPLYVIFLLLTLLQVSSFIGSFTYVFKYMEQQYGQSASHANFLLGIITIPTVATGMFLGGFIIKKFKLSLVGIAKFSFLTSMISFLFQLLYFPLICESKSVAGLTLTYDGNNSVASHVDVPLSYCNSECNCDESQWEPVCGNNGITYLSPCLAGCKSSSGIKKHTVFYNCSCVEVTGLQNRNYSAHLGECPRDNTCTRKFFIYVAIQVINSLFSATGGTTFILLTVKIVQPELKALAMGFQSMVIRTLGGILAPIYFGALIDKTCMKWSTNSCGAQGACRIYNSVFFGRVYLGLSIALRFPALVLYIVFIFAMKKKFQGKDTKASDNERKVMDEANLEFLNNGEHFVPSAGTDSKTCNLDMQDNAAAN
Assay name: Drug transporter inhibition, OATP1B3
Type: in vitro ADME
Test conditions: 100 nM [3H] estradiol-17β-D-glucuronide; transfected HEK-293 cells
Procedure: This study examined the potential of EC-18 to interact with the transporter proteins that have been known to be involved in the absorption of commercially available drugs. EC-18 was pre-incubated with HEK-293 cells and LLC-PK1 cells that were transfected with the genes of most drug transporters as follows: OATP1B1, OATP1B3, OAT1, OAT3 and OCT2, and BCRP and P-gp, respectively.
pIC50: −log10 of the molar value.

[
  {
    "Molecule": "CCCCC/C=C\\C/C=C\\CCCCCCCC(=O)OC(COC(C)=O)COC(=O)CCCCCCCCCCCCCCC (stereo not shown)",
    "pIC50": "< 4.49"
  }
]

* * *

Assay name: Plasma concentrations of EC-18 in non-irradiated and irradiated mice
Type: in vivo
Test conditions: male, Balb/c, mouse, po, 500 mg/kg, day 7, 500 mg/kg oral daily, Non-irradiated

[
  {
    "Compound": "CCCCC/C=C\\C/C=C\\CCCCCCCC(=O)OC(COC(C)=O)COC(=O)CCCCCCCCCCCCCCC (stereo not shown) [EC-18, 1-palmitoyl-2-linoleoyl-3-acetylglycerol]",
    "AUC(0-t) / ng·h/mL": 57.1
  }
]

* * *

Assay name: Plasma concentrations of EC-18 in non-irradiated and irradiated mice
Type: in vivo
Test conditions: male, Balb/c, mouse, po, 100 mg/kg, day 7, 100 mg/kg oral daily, Irradiated 6.11 Gy
Reported property: Tmax

[
  {
    "Molecule": "CCCCC/C=C\\C/C=C\\CCCCCCCC(=O)OC(COC(C)=O)COC(=O)CCCCCCCCCCCCCCC (stereo not shown)",
    "Reported property": "Tmax",
    "Observed": "42 min"
  }
]

* * *

Assay name: Plasma and lymphatic concentrations of EC-18 in beagle dogs after single administration
Type: in vivo, dog
Test conditions: male, beagle, dog, lymph, po, 4000 mg/kg, 4000 mg/kg po; lymph; read-out: median Tmax
Reported property: Tmax (h)

[
  {
    "Compound": "CCCCC/C=C\\C/C=C\\CCCCCCCC(=O)OC(COC(C)=O)COC(=O)CCCCCCCCCCCCCCC (stereo not shown)",
    "Reported property": "Tmax",
    "Unit string": "h",
    "Observed": 2
  }
]

* * *

Assay name: Plasma and lymphatic concentrations of EC-18 in rats after single oral administration
Assay type: in vivo, rat
Test conditions: male, SD, rat; Lymph; 2000 mg/kg oral; n=3

[
  {
    "Compound": "CCCCC/C=C\\C/C=C\\CCCCCCCC(=O)OC(COC(C)=O)COC(=O)CCCCCCCCCCCCCCC (stereo not shown)",
    "Tmax": "3 h"
  }
]

* * *

Assay name: Plasma concentrations of EC-18 in non-irradiated and irradiated mice
Format: in vivo
Test conditions: male, Balb/c, mouse, po, 500 mg/kg, day 14, 500 mg/kg oral daily, Irradiated 6.11 Gy

[
  {
    "Compound": "CCCCC/C=C\\C/C=C\\CCCCCCCC(=O)OC(COC(C)=O)COC(=O)CCCCCCCCCCCCCCC (stereo not shown)",
    "Tmax, min": 36
  }
]
